B1: ZC3H15 (parent)
chain: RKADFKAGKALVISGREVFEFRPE

Variants of: B1
Assay: protein stability index of a GFP-peptide fusion (GPS, HEK-293T) (PSI 1-6); higher = more stable;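 also: lentivirally expressed fusions sorted by FACS into six bins by GFP to DsRed ratio, PSI derived from sequencing read proportions per bin multiplied by bin number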
Conditions: c terminus: a fixed tail appended
Reported endpoint: protein stability index
Format: numeric value only, no unit, no commentary.

Below, 2 variants whose answers are already recorded.
A7Y 2.18
V12N 3.93

Supply measured protein stability index of K9S in your reply.
3.16

Supply measured protein stability index of G15V in your reply.
2.06

Supply measured protein stability index of G15Y in your reply.
1.85

Supply measured protein stability index of R22D in your reply.
3.72

Supply measured protein stability index of R16Q in your reply.
3.61

Supply measured protein stability index of I13E in your reply.
4.28

Supply measured protein stability index of K9T in your reply.
3.04

Supply measured protein stability index of E20F in your reply.
1.96

Supply measured protein stability index of R1N in your reply.
3.23

Supply measured protein stability index of D4R in your reply.
2.55

Supply measured protein stability index of V18N in your reply.
3.61

Supply measured protein stability index of F21D in your reply.
4.04

Supply measured protein stability index of R22P in your reply.
3.25

Supply measured protein stability index of S14Q in your reply.
2.81

Supply measured protein stability index of G15W in your reply.
1.37

Supply measured protein stability index of F5W in your reply.
2.48

Supply measured protein stability index of E24W in your reply.
1.84

Supply measured protein stability index of R16P in your reply.
3.27

Supply measured protein stability index of S14C in your reply.
1.21

Supply measured protein stability index of A3E in your reply.
3.77
